# system_tested: IRAK-4 (Homo sapiens)
# Sequence (Q9NWZ3 whole entry): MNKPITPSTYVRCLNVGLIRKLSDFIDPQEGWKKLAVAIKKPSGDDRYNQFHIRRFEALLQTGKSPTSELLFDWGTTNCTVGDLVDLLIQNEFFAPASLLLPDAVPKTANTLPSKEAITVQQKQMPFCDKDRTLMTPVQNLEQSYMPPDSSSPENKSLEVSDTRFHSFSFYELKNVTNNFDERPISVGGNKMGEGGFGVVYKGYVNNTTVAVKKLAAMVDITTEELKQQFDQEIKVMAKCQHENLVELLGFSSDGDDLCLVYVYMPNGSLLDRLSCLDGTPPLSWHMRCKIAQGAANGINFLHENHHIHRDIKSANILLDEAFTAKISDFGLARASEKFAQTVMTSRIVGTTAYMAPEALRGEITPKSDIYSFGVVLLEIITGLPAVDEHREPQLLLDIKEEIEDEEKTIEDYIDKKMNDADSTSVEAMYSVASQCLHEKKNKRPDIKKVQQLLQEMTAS
# assay_notes: IRAK-4 ELISA, PBMC degradation
# Type: cell-based
# Set-up: endogenous in cells; host or cells: PBMC
# settings: treated overnight

molecule	Dmax
COc1cc(N2CCC(CN3CCC(N4Cc5cc(NC(=O)c6cnn7cccnc67)c(OC(C)C)cc5C4=O)CC3)CC2)cc2c1C(=O)N(C1CCC(=O)NC1=O)C2 (stereo not drawn)	≥ 90%
O=C1CCC(N2C(=O)c3ccc(N4CCC(CN5CC[C@H](n6cc7cc(NC(=O)c8cnn9cccnc89)c(OCC8CC8)cc7n6)[C@@H](F)C5)CC4)cc3C2=O)C(=O)N1 (stereo partly drawn)	80 to 90%
C[C@H](Oc1cc2nn(C3CCN(CC4(F)CN(c5ccc6c(c5)C(=O)N(C5CCC(=O)NC5=O)C6=O)C4)CC3)cc2cc1NC(=O)c1cnn2cccnc12)C1CC1 (stereo partly drawn)	70 to 80%

* * *

# system_tested: IRAK-4 (Homo sapiens)
# assay_notes: IRAK-4 ELISA, OCI-Ly10 degradation
# Assay type: cell-based
# Design: endogenous in cells
# settings: OCI-Ly10 cells, treated overnight
experimental_endpoint: DC50

compound	measurement
COc1cc2nn([C@H]3CC[C@H](N(C)C4CCN(c5ccc6c(c5)C(=O)N(C5CCC(=O)NC5=O)C6=O)CC4)CC3)cc2cc1NC(=O)c1cnn2cccnc12 (stereo partly drawn) [Example 335]	< 0.01 µM
O=C1CCC(N2C(=O)c3ccc(N4CCN(CCOC[C@H](F)Cn5cc6cc(NC(=O)c7cnn8cccnc78)c(OCC7CC7)cc6n5)CC4)cc3C2=O)C(=O)N1 (stereo partly drawn) [Example 180]	0.01 to 0.05 µM
O=C1CCC(N2Cc3cc(N4CCN(CCN5CCC(n6cc7cc(NC(=O)c8cnn9cccnc89)c(OCC8CC8)cc7n6)CC5)CC4)ccc3C2=O)C(=O)N1 (stereo not drawn) [Example 160]	< 0.01 µM

* * *

# system_tested: IRAK-4 (Homo sapiens)
# assay_notes: IRAK-4 ELISA, OCI-Ly10 degradation
# Type: cell-based
# Parameters: endogenous in cells
# settings: OCI-Ly10 cells, treated overnight
Collected DC50 values appear next to each entry.
experimental_endpoint: DC50

compound	measurement
COc1cc2nn(C3CCN(C(C)(C)C4CN(c5ccc6c(c5)C(=O)N(C5CCC(=O)NC5=O)C6=O)C4)CC3)cc2cc1NC(=O)c1cnn2cccnc12 (centres unmarked)	< 10 nM
O=C1CCC(N2C(=O)c3ccc(N4CC(F)(CN5CCC(n6cc7cc(NC(=O)c8cnn9cccnc89)c(OCC8CC8)cc7n6)CC5)C4)cc3C2=O)C(=O)N1 (centres unmarked)	10 to 50 nM
COc1cc2nn([C@H]3CC[C@H](N(C)C4CN(c5ccc6c(c5)C(=O)N(C5CCC(=O)NC5=O)C6=O)C4)CC3)cc2cc1NC(=O)c1cnn2cccnc12 (some centres unmarked)	< 10 nM
O=C1CCC(N2Cc3cc(N4CCC(CN5CCC(n6cc7cc(NC(=O)c8cnn9cccnc89)c(C8CC8)cc7n6)CC5)CC4)ccc3C2=O)C(=O)N1 (centres unmarked)	< 10 nM
O=C1CCC(N2C(=O)c3ccc(N4CCN(CCN5CCC([C@H](F)CN6Cc7cc(NC(=O)c8cnn9cccnc89)c(N8CCOCC8)cc7C6=O)CC5)CC4)cc3C2=O)C(=O)N1 (some centres unmarked)	10 to 50 nM
O=C1CCC(N2C(=O)c3ccc(N4CCC(COC[C@H](F)Cn5cc6cc(NC(=O)c7cnn8cccnc78)c(OCC7CC7)cc6n5)CC4)cc3C2=O)C(=O)N1 (some centres unmarked)	≥ 100 nM
O=C1CCC(N2C(=O)c3ccc(N4CCC(CN5CCC(N6Cc7cc(NC(=O)c8cnn9cccnc89)c(N8CCOCC8)cc7C6=O)CC5)CC4)cc3C2=O)C(=O)N1 (centres unmarked) [Example 31]	< 10 nM
COc1cc2nn(C3CCN(CC4CCN(c5ccc6c(c5)CN(C5CCC(=O)NC5=O)C6=O)CC4)CC3)cc2cc1NC(=O)c1cnn2cccnc12 (centres unmarked)	< 10 nM
O=C1CCC(N2C(=O)c3ccc(N4CCN(CCN5CCC(n6cc7cc(NC(=O)c8cnn9cccnc89)c(OCC8CC8)cc7n6)CC5)CC4)cc3C2=O)C(=O)N1 (centres unmarked)	< 10 nM
COc1cc2nn(C3CCN(C4CN(c5ccc6c(c5)C(=O)N(C5CCC(=O)NC5=O)C6=O)C4)CC3)cc2cc1NC(=O)c1cnn2cccnc12 (centres unmarked)	< 10 nM
Cc1cnc2c(C(=O)Nc3cc4cn(C5CCN(CC6CCN(c7ccc8c(c7)C(=O)N(C7CCC(=O)NC7=O)C8=O)CC6)CC5)nc4cc3OCC3CC3)cnn2c1 (centres unmarked)	50 to 100 nM
